Ok so here's the combined literature set: pKi for UniProt P07477.
Sequence (P07477 whole entry): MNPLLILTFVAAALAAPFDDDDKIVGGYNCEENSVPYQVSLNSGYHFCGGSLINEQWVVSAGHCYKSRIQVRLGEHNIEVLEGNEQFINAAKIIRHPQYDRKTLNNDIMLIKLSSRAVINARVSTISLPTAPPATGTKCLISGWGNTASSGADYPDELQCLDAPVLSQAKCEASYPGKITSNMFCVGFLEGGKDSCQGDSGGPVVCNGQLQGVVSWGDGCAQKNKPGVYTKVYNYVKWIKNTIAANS
In simple prose, pKi is minus the logarithm base ten of a concentration in moles per litre.

Give the measured pKi of `CCCNS(=O)(=O)c1ccccc1-c1ccc(NC(=O)Cc2c[nH]c3ccc(C(=N)N)cc23)cc1` .
6.74

Same thing, different compound: `Cc1ccc(NCCc2ccccc2)c(=O)n1CC(=O)NC[C@H]1CC[C@H](N)CC1`
5.66

Same thing, different compound: CC(=O)N[C@H](Cc1ccccc1)C(=O)N1CCC[C@H]1C(=O)N[C@@H](CCCn1ccnc1)B1O[C@@H]2CC3CC(C3(C)C)[C@]2(C)O1 (stereo partly drawn)
7.57

Same thing, different compound: CN(C(=O)C(Cc1ccc(CN)cc1)NS(=O)(=O)c1ccc2c(c1)CCCCC2)C1CCCC1 (stereo not drawn)
5.20

Same thing, different compound: `COC(=O)[C@H](Cc1cccc(C(=N)N)c1)[C@H](NC(=O)c1ccc(-c2cccc(CN)c2)cc1)C(C)C`
6.52
